target: GLP-1R (UniProt P43220 24-463, limits assumed); assay: cell-based or functional assay
In this section we review reported EC50 value, cellular cAMP assay (Hit Hunter cAMP) values for a set of binders.
result_type: EC50 value, cellular cAMP assay (Hit Hunter cAMP) (nM)

binder: YXQGTFTSDYSIXLDKXAQXAFIEYLLEGGPSSGAPPPS (Aib at 2; αMethyl-Leu at 13; Lys 17 ε-amino acylated with Moiety C; Aib at 20; C-terminal amide) [Compound 19]
readout_relation: =
endpoint_value: 0.0116

binder: YXQGTFTSDYSIXLDKXAQXAFIEYLLEGGPSSGAPPPS (Aib at 2; norvaline at 13; Lys 17 ε-amino acylated with Moiety B; Aib at 20; C-terminal amide) [Compound 17]
readout_relation: =
endpoint_value: 0.0087

binder: YXQGTFTSDYSIXLDKXAQXAFIEYLLEGGPSSGAPPPS (Aib at 2; αMethyl-Leu at 13; Lys 17 ε-amino acylated with Moiety B; Aib at 20; C-terminal amide) [Compound 13]
readout_relation: >
endpoint_value: 2.4

binder: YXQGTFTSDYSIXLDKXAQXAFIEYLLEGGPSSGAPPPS (Aib at 2; norleucine at 13; Lys 17 ε-amino acylated with Moiety B; Aib at 20; C-terminal amide) [Compound 14]
readout_relation: =
endpoint_value: 8.54

binder: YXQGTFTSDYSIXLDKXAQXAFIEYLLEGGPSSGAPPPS (Aib at 2; αMethyl-Leu at 13; Lys 17 ε-amino acylated with Moiety A; Aib at 20; C-terminal amide (Rink amide resin)) [Compound 12]
readout_relation: =
endpoint_value: 12

binder: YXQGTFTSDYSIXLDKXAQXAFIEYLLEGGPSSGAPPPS (not fully specified; Aib at 2; norvaline at 13; Lys 17 ε-amino acylated with Moiety G; Aib at 20; C-terminal amide) [Compound 18]
readout_relation: =
endpoint_value: 0.0173

binder: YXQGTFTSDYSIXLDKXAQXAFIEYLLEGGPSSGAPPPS (Aib at 2; αMethyl-Leu at 13; Lys 17 ε-amino acylated with Moiety D; Aib at 20; C-terminal amide) [Compound 20]
readout_relation: =
endpoint_value: 0.0144
